These measurements were taken from patent US20260216242A1.

system_tested: T1, Human ALPPL2 (leucine zipper) (human)
T1 construct: Whole entry: fused with a cysteine stabilised leucine zipper and His tag; also called hALPPL2
T1 chain: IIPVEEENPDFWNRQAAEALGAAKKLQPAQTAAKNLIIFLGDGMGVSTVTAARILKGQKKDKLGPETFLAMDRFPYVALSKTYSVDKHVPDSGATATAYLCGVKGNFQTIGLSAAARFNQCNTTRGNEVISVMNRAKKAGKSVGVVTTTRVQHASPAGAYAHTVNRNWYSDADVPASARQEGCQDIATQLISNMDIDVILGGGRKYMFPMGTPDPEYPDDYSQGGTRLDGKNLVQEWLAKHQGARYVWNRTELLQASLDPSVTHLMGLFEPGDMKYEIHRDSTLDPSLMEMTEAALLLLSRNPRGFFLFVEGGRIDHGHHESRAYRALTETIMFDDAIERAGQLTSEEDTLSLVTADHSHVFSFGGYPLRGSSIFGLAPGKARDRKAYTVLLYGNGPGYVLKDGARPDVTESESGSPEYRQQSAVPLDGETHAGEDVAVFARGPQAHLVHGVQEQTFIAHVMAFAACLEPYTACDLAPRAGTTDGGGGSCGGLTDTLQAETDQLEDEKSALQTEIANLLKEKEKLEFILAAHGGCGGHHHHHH
protocol_text: BLI, antigen immobilised
measurement_label: kon (M⁻¹ s⁻¹)

{"binder": "F08 His (VHH, not shown: small tags and cut ends, also called #269) VHH: QVQLVESGGGSVQAGGSLRLSCAASGPSLSNYAMGWFRQAPGKEREFVAGISWGGGRTSYTDSVKGRFTISRDNAKNTVYLQMNNLKPEDTGVYYCAGRYGRGRNVEYEYDYWGQGTQVTVSS", "measurement_label": "kon", "test_result": 684000}
{"binder": "E06 His (VHH, not shown: small tags and cut ends) VHH: QVHLVESGGGLVQAGGSLRLSCAASRRSFSEYAMGWFRQAPGKEREFVAAIGWSGVIEYADSVKGRFTISRDNAKDTVYLQMNSLKPEDTAVYYCAAGLGIRVVSQTPAYWGQGTQVTVSS", "measurement_label": "kon", "test_result": "1.05e+06"}
{"binder": "F05 His (VHH, not shown: small tags and cut ends) VHH: QVQLVESGGGLVQAGGSLRLSCAASGRAFGDYNIGWFRQAPGKEREFVARRTWDGSSTRYDDSVKGRFTVSIDNAKNTAYLQMNSLKTEDTAVYYCAAGRYSRVRGWEYDYWGQGTQVTVSS", "measurement_label": "kon", "test_result": "3.74e+06"}
{"binder": "C07 His (VHH, not shown: small tags and cut ends, also called #258) VHH: QVQLVESGGGLVQAGESLRLACAASGTIFSGNAVGWYRQAPEKQREWVSSITDYGDTDYAEAVKGRFTISRDNAKNTVYLQMNSLKPEDTAVYYCYVYQRGESEEYWGQGTQVTVSS", "measurement_label": "kon", "test_result": 471000}
